# Tested on: HT-1080
# METHOD NOTES: Antiproliferative activity against human HT1080 cells
# Type: functional, cell-based
OBSERVED PROPERTY: pIC50
One number for each entry, as −log10 of the molar value.

Query: Given O=C(CCCCCCNC(=O)c1cc2ccccc2[nH]1)NO , state its recorded pIC50.
Result: 6.85

###

# TEST SYSTEM: Sigma non-opioid intracellular receptor 1 (Cavia porcellus, UniProt Q60492)
# Sequence (Q60492 whole entry): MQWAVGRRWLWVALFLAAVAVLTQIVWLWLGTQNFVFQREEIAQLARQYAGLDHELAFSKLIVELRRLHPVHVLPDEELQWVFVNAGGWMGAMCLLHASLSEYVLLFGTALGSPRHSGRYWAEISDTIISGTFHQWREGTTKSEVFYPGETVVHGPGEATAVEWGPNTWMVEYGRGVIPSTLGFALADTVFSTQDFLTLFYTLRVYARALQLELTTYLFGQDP
# METHOD NOTES: Displacement of [3H]-(+)-pentazocine from sigma-1 receptor in guinea pig brain membranes after 180 mins by scintillation counting method
pKi: −log10 of the molar value.
OBSERVED PROPERTY: pKi

Query: Hi! What's the reported pKi for Clc1ccc(CN2CCN(Cc3c[nH]c4ccccc34)CC2)cc1Cl on Sigma non-opioid intracellular receptor 1 (Cavia porcellus, UniProt Q60492)?
Result: ≥ 6.89

###

# Test system: MCF7
# METHOD NOTES: Antiproliferative activity against human MCF7 cells
# Format: functional, cell-based
pIC50: −log10 of the molar value.
OBSERVED PROPERTY: pIC50

Query: Item under review: COc1ccc2[nH]cc(Cn3cc(COc4ccc(/C=C/C(=O)NO)cc4OC)nn3)c2c1 . Reported pIC50?
Result: 5.21 to 5.45

###

# TEST SYSTEM: Serine/threonine-protein kinase pim-1 (Homo sapiens, UniProt P11309)
# Sequence (P11309 whole entry): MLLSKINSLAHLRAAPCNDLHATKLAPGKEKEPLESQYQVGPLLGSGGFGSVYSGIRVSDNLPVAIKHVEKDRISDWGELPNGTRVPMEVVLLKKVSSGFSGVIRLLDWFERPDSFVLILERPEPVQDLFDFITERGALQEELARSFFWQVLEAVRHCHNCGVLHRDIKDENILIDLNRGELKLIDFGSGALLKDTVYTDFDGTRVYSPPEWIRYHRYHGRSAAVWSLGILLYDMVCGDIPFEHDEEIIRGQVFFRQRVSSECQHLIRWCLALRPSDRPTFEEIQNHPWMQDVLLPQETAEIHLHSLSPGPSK
OBSERVED PROPERTY: pIC50
Answers are plain numbers, as −log10 of the molar value.

Query: Tell me the measured pIC50 of CN(C)CCCOc1cc(-c2ccc3[nH]cc(-c4ccnc(N)n4)c3c2)nc(N)n1 , please.
Result: 7.24

###

For each entry below, report its Ki value.
# TEST SYSTEM: Sigma intracellular receptor 2 (Rattus norvegicus)
# Sequence (Q5U3Y7 whole entry): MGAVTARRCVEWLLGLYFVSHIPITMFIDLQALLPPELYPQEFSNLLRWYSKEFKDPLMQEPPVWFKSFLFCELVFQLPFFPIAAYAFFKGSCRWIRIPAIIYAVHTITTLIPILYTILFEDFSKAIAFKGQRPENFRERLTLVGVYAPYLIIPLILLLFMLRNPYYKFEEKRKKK
# METHOD NOTES: Displacement of [3H]-di-o-tolylguanidine from sigma-2 receptor in rat liver membranes after 180 mins by scintillation counting method
One number for each entry, in nM.

> print(dat)
                        structure.smiles                               test.system  observed.property  measure.unit  recorded.number
1  Cc1cn(CN2CCN(CCc3ccccc3)CC2)c2ccccc12  Sigma intracellular receptor 2 (Rattus norvegicus)                 Ki            nM             55.8

Note: attention shifts to another entry.
Query: For the molecule Fc1ccccc1N1CCN(CCCn2ccc3ccccc32)CC1 , what Ki is on record?
Result: 9.9
